Reported values of pIC50 for individual entries
Tested on: HGC27
Experiment: CellTiter-Blue cell-based survival/proliferation assay, HGC27
Details: Homo sapiens, HGC-27; HGC27 stomach tumor cell line, 48 h
Experimental: Cell-Based Proliferation Screening of Compounds CellTiter-Blue cell-based survival/proliferation assay (Promega G8080) was performed on tumor cell lines. A total of 1·10^4 cells/well/50 μl were seeded in a 96-wells plate. Treatment was initiated by addition of a 2× drug solution of 1/10 serial dilutions ranging from 0 to 10 μM. […] The amount of resorufin dye formed was quantified by its fluorescence emission at 590 nm using a scanning multiwell spectrophotometer (OPTIMA, BMG labtech, France). […]
pIC50: −log10 of the molar value.

Field: example entries. Status: answers known.
CCOCc1cc(COCC)cc(Nc2ncc(-c3ccc(N4CCNC4=O)cc3)o2)c1 [Example 053] = 6.30 to 7.00
COc1ccc(C)c(Nc2ncc(-c3ccc(N4CCNC4=O)cc3)s2)c1 [Example 013] = < 6.00
CCOCc1ccc(C)c(Nc2ncc(-c3ccc(N4CCN(CCN)C4=O)cc3)o2)c1 [Example 045] = < 6.00

Reported pIC50, molecule CCOCc1cc(C)cc(Nc2ncc(-c3ccc(-n4cccn4)cc3)o2)c1 [Example 021] : ____
< 6.00
